Value source: the supplement of paper PMC11061612

Consider the following compounds and their measured Bliss excess readings.
Test system: NH-12 (Neuroblastoma)
Test: Bliss excess, mean over the matrix (fraction); higher = more synergy;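 note: after 72 h of two-drug dosing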

Sample answers from the record:
- Cc1c2c(nn1C)CSCc1cc(n(C)n1)CSc1cc(c3ccccc3c1)OCCCc1c(C(=O)O)n(C)c3c-2c(Cl)ccc13 [AZD5991] + Cn1cnc2c(F)c(Nc3ccc(Br)cc3Cl)c(C(=O)NOCCO)cc21 [Selumetinib] (first compound max 1 µM, 7x7, partner max 3 µM): 0.0026
- CN(CCO)CC[C@H](CSc1ccccc1)Nc1ccc(S(=O)(=O)NC(=O)c2ccc(N3CCC([C@@H](O)c4ccccc4-c4ccc(Cl)cc4)CC3)cc2)cc1S(=O)(=O)C(F)(F)F [AZD4320] + Cc1cc2ncnn2cc1Nc1ncc2c(n1)n(C1CCOCC1)c(=O)n2C [AZD7648] (first compound max 1 µM, 7x7, partner max 10 µM): -0.0248

Read the next record carefully.
Query: Which Bliss excess is reported for this compound? CCN(CCO)CCCOc1ccc2c(Nc3cc(CC(=O)Nc4cccc(F)c4)[nH]n3)ncnc2c1 [AZD2811] + C[C@@H]1COCCN1C2=NC(=NC(=C2)C3(CC3)[S@](=N)(=O)C)C4=C5C=CNC5=NC=C4 [AZD6738] (first compound max 1 µM, 7x7, partner max 10 µM)
Result: 0.0347

###

System: KYSE-50 (Esophageal Squamous Cell Carcinoma)
Experiment: Bliss excess, mean over the matrix (fraction); higher = more synergy
# Bliss excess listing for each entry below
Give only the figure.

Would you please look over these solved cases?
- CN(C)CCCOc1ccc(-c2ccc3ncc4c(c3c2)n(C2CCOCC2)c(=O)n4C)cn1 [AZD0156] + C[C@@H]1COCCN1C2=NC(=NC(=C2)C3(CC3)[S@](=N)(=O)C)C4=C5C=CNC5=NC=C4 [AZD6738] (first compound max 1 µM, 7x7, partner max 10 µM): 0.0101
- Cc1c2c(nn1C)CSCc1cc(n(C)n1)CSc1cc(c3ccccc3c1)OCCCc1c(C(=O)O)n(C)c3c-2c(Cl)ccc13 [AZD5991] + Cn1cnc2c(F)c(Nc3ccc(Br)cc3Cl)c(C(=O)NOCCO)cc21 [Selumetinib] (first compound max 1 µM, 7x7, partner max 3 µM): -0.0049
- COc1nnc2ccc(N3CCC(c4ccc(OCCN5CCN(C)C(=O)[C@H]5C)cc4)CC3)nn12 [AZD5153] + CCN(CCO)CCCOc1ccc2c(Nc3cc(CC(=O)Nc4cccc(F)c4)[nH]n3)ncnc2c1 [AZD2811] (first compound max 1 µM, 7x7, partner max 1 µM): -0.0309

Query: Can you share its Bliss excess? I mean this molecule: CN(CCO)CC[C@H](CSc1ccccc1)Nc1ccc(S(=O)(=O)NC(=O)c2ccc(N3CCC([C@@H](O)c4ccccc4-c4ccc(Cl)cc4)CC3)cc2)cc1S(=O)(=O)C(F)(F)F [AZD4320] + C1CN(CCC1(C(=O)N[C@@H](CCO)C2=CC=C(C=C2)Cl)N)C3=NC=NC4=C3C=CN4 [Capivasertib] (first compound max 1 µM, 7x7, partner max 3 µM)
Result: -0.0344

Query: # iterate: CC1(C)CCC(CN2CCN(c3ccc(C(=O)NS(=O)(=O)c4ccc(NCC5CCOCC5)c([N+](=O)[O-])c4)c(Oc4cnc5[nH]ccc5c4)c3)CC2)=C(c2ccc(Cl)cc2)C1 [Venetoclax] + C1CN(CCC1(C(=O)N[C@@H](CCO)C2=CC=C(C=C2)Cl)N)C3=NC=NC4=C3C=CN4 [Capivasertib] (first compound max 1 µM, 7x7, partner max 3 µM)
Result: -0.0418
